Tested on: Fibroblast
TEST DETAILS: Multiplex assay against human fibroblast
Assay type: toxicity, cell-based
SETTINGS: 12 h, 10 µM, compound concentration 10 uM, replicate 1
Classification by Population Pyknosed Nuclei (%) follows these ranges: one (below 30%), two (30% to below 40%), three (40% or more)

stdin: For this molecule, which bin applies? CCCSc1nc(N[C@@H]2C[C@H]2c2ccc(F)c(F)c2)c2nnn([C@@H]3C[C@H](OCCO)[C@@H](O)[C@H]3O)c2n1 [TICAGRELOR]
stdout: three

stdin: For this molecule, which bin applies? O=C(c1cc2c(cc1F)OC(c1ccc(F)cc1)(c1ccc(Cl)cc1Cl)O2)N1CCOCC1 (stereo not drawn)
stdout: two

stdin: For this molecule, which bin applies? CC1=C(C(=O)Nc2cc3cn[nH]c3cc2F)C(c2ccc(C(F)(F)F)cc2)CC(=O)N1 (stereo not drawn)
stdout: one

stdin: For this molecule, which bin applies? CC(C)(C)NC[C@H](O)COc1nsnc1N1CCOCC1 [TIMOLOL]
stdout: two

stdin: For this molecule, which bin applies? Cc1ccccc1C(c1ccccc1C)N1C2CCC1CC(O)(c1ccccc1)C2 (stereo not drawn)
stdout: two

Continuing:
stdin: For this molecule, which bin applies? COC(=O)C1=C(C)NC(C)=C(C(=O)OCCCN2CCC(c3ccccc3)(c3ccccc3)CC2)[C@H]1c1cccc([N+](=O)[O-])c1 [NIGULDIPINE]
stdout: three

stdin: For this molecule, which bin applies? CN1CCN(Cc2ccc(Nc3ncc(Cl)c(Nc4ccccc4S(=O)(=O)N(C)C)n3)cc2)CC1 [DUBERMATINIB]
stdout: one

stdin: For this molecule, which bin applies? Cc1c[nH]c2nccc(Oc3c(F)cc(Nc4cc(Cl)nc(N)n4)cc3F)c12 [BAY-549]
stdout: three

stdin: For this molecule, which bin applies? Cc1ccc2c(c1)c1c(n2CCc2ccc(C)nc2)CCN(C)C1 [LATREPIRDINE]
stdout: one

stdin: For this molecule, which bin applies? COc1ccccc1CN[C@H]1C2CCN(CC2)[C@H]1C(c1ccccc1)c1ccccc1 [CP-96345]
stdout: one

stdin: For this molecule, which bin applies? Cc1cccc(CN2CCN(C(c3ccccc3)c3ccc(Cl)cc3)CC2)c1.Cl.Cl (stereo not drawn)
stdout: two
